test system: ERBB2; details: concentration: 1 μM, replicates: in singlicate; n = 1;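 note: KINOMEscan kinase panel screen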
Parameter %Inh: see the listing below.
Output should be the measured figure followed by the unit it is expressed in.

* Cl.c1ccc(Cn2ccc3cc(Nc4ncnc5ccccc45)ccc32)cc1 | 100%
* Cn1ccc2ncnc(Nc3ccc(Oc4cccc(Cl)c4)c(Cl)c3)c21 | 100%
* CN1CCC(n2cnc(-c3ccc(F)cc3)c2-c2ccnc(NC3CCNCC3)n2)CC1 | 32%
* O=C(Nc1ccccc1F)NC1CCN(c2ccnc(Nc3ccc(F)cc3)n2)C1 (stereo not drawn) | 30%

Input: Looking for the measured %Inh of CCc1nc(-c2cccc(C)c2)c(-c2ccnc(NC(=O)c3ccccc3)c2)s1 , can you help?
Output: 46%

Input: CN1c2ccc(-c3ccc(C(=O)NCCO)cc3)cc2-c2[nH]ncc2S1(=O)=O , same question.
Output: 8%

Input: CSc1nn2c(=O)cc(N3CCOCC3)nc2n1Cc1cccc(Cl)c1Cl , same question.
Output: 0%

Input: COc1ccc(-c2oc3ncnc(N)c3c2-c2ccc(OC)cc2)cc1 , same question.
Output: 41%

Input: Nc1nc(-c2ccccn2)c(-c2ccnc3ccccc23)s1 , same question.
Output: 53%

###

tested on: IKK-epsilon; construct: gene IKBKE; conditions: concentration: 1 μM, replicates: in singlicate; n = 1
Parameter %Inh: see the listing below.
Respond with the bare value in %.

Solved entries:
* Cn1cc(-c2ccc3c(c2)CCN3C(=O)Cc2cccc(C(F)(F)F)c2)c2c(N)ncnc21 [GSK2606414] | 4
* CS(=O)(=O)CCNCc1nc(-c2ccc3ncnc(Nc4ccc(OCc5cccc(F)c5)c(Cl)c4)c3c2)cs1.Cl [GW583340] | 7

Input: Looking for the measured %Inh of Cn1ccc2ncnc(Nc3ccc(Oc4cccc(Cl)c4)c(Cl)c3)c21 , can you help?
Output: 11

###

system: LZK; construct: gene MAP3K13; conditions: concentration: 1 μM, replicates: in singlicate; n = 1
Parameter %Inh: see the listing below.
Respond with the bare value in %.

Solved entries:
• Clc1cccc(-c2nc(Nc3ccncc3)c3ccccc3n2)c1 [GW873004] = 0
• CNc1nccc(-c2c(-c3ccc(F)cc3)ncn2CCCN2CCOCC2)n1 [SB-222516] = 0
• Fc1ccc(-c2ncn(CCCNCc3ccccc3)c2-c2ccncc2)cc1 = 12
• Cn1cc(-c2ccc3c(c2)CCN3C(=O)Cc2cccc(C(F)(F)F)c2)c2c(N)ncnc21 [GSK2606414] = 0

Input: Looking for the measured %Inh of CC(C)(C)c1ccc(-n2cnc3c(N)ncnc32)cc1 [SKF-97263] , can you help?
Output: 0

Input: COc1ccc(Nc2nccc(N3CCC(NC(=O)Nc4ccc5c(c4)OCO5)C3)n2)cc1 (stereo not drawn) [GSK1379745] , same question.
Output: 39

Input: CCC(CC)(CC)n1cnc2c(N)ncnc21 [SKF-97620] , same question.
Output: 36

Input: COC(=O)c1c(-c2ccccc2)c2cc(Cl)ccc2c(=O)n1Cc1ccc(S(C)(=O)=O)cc1 , same question.
Output: 0

Input: O=C(Nc1ccccc1)Nc1ccc(Oc2ccc3nccn3n2)cc1 , same question.
Output: 0

###

Parameter %Inh: see the listing below.
tested on: PDPK1; conditions: concentration: 1 μM, replicates: in singlicate; n = 1
Respond with the bare value in %.

Solved entries:
* CSc1nn2c(=O)cc(N3CCOCC3)nc2n1Cc1cccc(Cl)c1Cl [GSK2347225] | 0
* Cc1ccc(NC(=O)c2cccc(C#N)c2)cc1-c1ccc(C(=O)Nc2ccncc2)cc1 [GSK1398463] | 17

Input: Looking for the measured %Inh of NC(=O)c1sc(-n2cnc3ccccc32)cc1OCc1ccccc1F [GSK1024306] , can you help?
Output: 19

Input: Fc1ccc(Nc2nccc(-c3c(-c4ccc(Cl)cc4)nn4ncccc34)n2)cc1F [GW829058] , same question.
Output: 12

Input: CN1CCC(n2cnc(-c3ccc(F)cc3)c2-c2ccnc(NC3CCNCC3)n2)CC1 [SB-229482] , same question.
Output: 0

Input: CCCc1ccc(S(=O)(=O)NC2CCN(c3ccnc(Nc4ccc(OC)cc4)n3)C2)cc1 (stereo not shown) [GSK1379737] , same question.
Output: 0

Input: Cl.c1ccc(Cn2ncc3cc(Nc4ncnc5ccccc45)ccc32)cc1 [GW273749] , same question.
Output: 0

###

Parameter %Inh: see the listing below.
system: PRKCH; settings: concentration: 1 μM, replicates: in singlicate; n = 1
Respond with the bare value in %.

Input: Looking for the measured %Inh of COc1ccc(Nc2nccc(N3CCC(NC(=O)Nc4ccc5c(c4)OCO5)C3)n2)cc1 (stereo not drawn) [GSK1379745] , can you help?
Output: 12

Input: FC(F)(F)c1ccc(-c2cc(-c3c[nH]nc3-c3ccccn3)ccn2)cc1 [GW599550] , same question.
Output: 21

Input: O=C(CCO)NCCn1ccc2ncnc(Nc3ccc(Oc4cccc(C(F)(F)F)c4)c(Cl)c3)c21 , same question.
Output: 0

Input: Cl.O=S(=O)(c1cccc(F)c1)c1ccc(Nc2ncnc3cc(Br)sc23)cc1Cl [GSK306886] , same question.
Output: 0

###

system: TYK2(JH1domain-catalytic); conditions: concentration: 1 μM, replicates: in singlicate; n = 1
Parameter %Inh: see the listing below.
Respond with the bare value in %.

Solved entries:
• O=C(Nc1ccccc1F)NC1CCN(c2ccnc(Nc3ccc(F)cc3)n2)C1 (stereo not shown) [GSK1379722] = 23
• CSc1nn2c(=O)cc(N3CCOCC3)nc2n1Cc1cccc(Cl)c1Cl [GSK2347225] = 12

Input: Give recorded %Inh with TYK2(JH1domain-catalytic) for the following molecule: NC(=O)c1sc(-n2cnc3ccccc32)cc1OCc1ccccc1F [GSK1024306]
Output: 13

Input: CCC(CC)(CC)n1cnc2c(N)ncnc21 [SKF-97620] , same question.
Output: 21

Input: CC(C)N1CCC(n2cnc(-c3ccc(F)cc3)c2-c2ccnc(N)n2)CC1 [SB-223132] , same question.
Output: 0

Input: CCc1nc(-c2cccc(C)c2)c(-c2ccnc(NC(=O)c3ccccc3)c2)s1 , same question.
Output: 24

###

system: ASK1; construct: gene MAP3K5; conditions: concentration: 1 μM, replicates: in singlicate; n = 1
MEASURED ATTRIBUTE: %Inh (%)
Respond with the bare value in %.

Solved entries:
- COC(=O)c1c(-c2ccccc2)c2cc(Cl)ccc2c(=O)n1Cc1ccc(S(C)(=O)=O)cc1: 6
- COc1ccc(Nc2nccc(N3CCC(NC(=O)c4cccc(NC(C)=O)c4)C3)n2)cc1 (stereo not drawn): 0

Input: Looking for the measured %Inh of Cn1cc(-c2ccc3c(c2)CCN3C(=O)Cc2cccc(C(F)(F)F)c2)c2c(N)ncnc21 , can you help?
Output: 0

Input: c1ccc(-c2ccc3c(-c4ccnc(Nc5ccc6c(c5)OCCO6)n4)cnn3n2)cc1 , same question.
Output: 7

Input: Cl.c1ccc(Cn2ncc3cc(Nc4ncnc5ccccc45)ccc32)cc1 , same question.
Output: 0

Input: Clc1cc(Nc2ncnc3cc[nH]c23)ccc1OCc1ccccn1 , same question.
Output: 5

Input: Cc1ccc(NC(=O)c2cccc(C#N)c2)cc1-c1ccc(C(=O)Nc2ccncc2)cc1 , same question.
Output: 3

Input: FC(F)(F)c1ccc(-c2cc(-c3c[nH]nc3-c3ccccn3)ccn2)cc1 , same question.
Output: 5

Input: O=C(Nc1ccccc1F)NC1CCN(c2ccnc(Nc3ccc(F)cc3)n2)C1 (stereo not drawn) , same question.
Output: 8

###

tested on: GRK3; construct: gene ADRBK2; conditions: concentration: 1 μM, replicates: in singlicate; n = 1
Parameter %Inh: see the listing below.
Output should be the measured figure followed by the unit it is expressed in.

Input: Looking for the measured %Inh of Cc1ccc(O)cc1Nc1cc(C(F)(F)F)nc2ccc(-c3ccncc3)cc12 [GW630823] , can you help?
Output: 0%

Input: NC(=O)c1sc(-n2cnc3ccccc32)cc1OCc1ccccc1F [GSK1024306] , same question.
Output: 21%

Input: Cl.Cn1ccc(-c2cccc(Nc3ccnc4cc(-c5nccs5)ccc34)c2)n1 [GW525701] , same question.
Output: 64%

Input: O=C(Nc1n[nH]c2nc(-c3ccco3)c(Br)cc12)c1ccc(CN2CCCC2)cc1.O=C(O)[C@H](O)[C@@H](O)C(=O)O [SB-742352] , same question.
Output: 0%

Input: COc1ccc(NC(=O)Nc2ccc(C)c(-c3ccc(C(=O)Nc4ccncc4)cc3)c2)cc1 [GSK1398475] , same question.
Output: 11%

Input: Fc1ccc(Nc2nccc(-c3c(-c4ccc(Cl)cc4)nn4ncccc34)n2)cc1F [GW829058] , same question.
Output: 18%

Input: Oc1ccc2ncnc(Nc3ccc(OCc4ccccc4)cc3)c2c1 [GI262866] , same question.
Output: 6%

Input: Cc1cc(N2CCC(NS(=O)(=O)c3ccc(F)cc3)CC2)nc(Nc2cccc(C#N)c2)n1.O=C(O)C(F)(F)F [GSK1653537] , same question.
Output: 16%
